The reported numbers originate from paper PMC8307404.

- measuredOn: CK2 (Homo sapiens, UniProt P68400)
- Sequence (P68400 whole entry): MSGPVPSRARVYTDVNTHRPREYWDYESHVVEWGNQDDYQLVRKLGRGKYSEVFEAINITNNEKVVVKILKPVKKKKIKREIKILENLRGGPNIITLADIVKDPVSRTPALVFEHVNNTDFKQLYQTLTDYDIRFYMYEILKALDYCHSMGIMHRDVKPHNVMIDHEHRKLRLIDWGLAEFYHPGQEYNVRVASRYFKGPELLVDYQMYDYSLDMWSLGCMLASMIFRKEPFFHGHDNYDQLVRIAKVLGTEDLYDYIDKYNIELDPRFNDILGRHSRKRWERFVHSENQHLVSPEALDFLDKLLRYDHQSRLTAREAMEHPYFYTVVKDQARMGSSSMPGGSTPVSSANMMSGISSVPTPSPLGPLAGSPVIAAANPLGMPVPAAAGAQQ
- experimentDescription: Kinase profiling (radiometric filter-binding)
- Type: biochemical
- conditionParameters: CK2, 1 µM inhibitor; read-out: Residual activity, %
Square brackets hold non-standard residues; d marks the D form. Peptide text beside a SMILES is read from it. * marks the point of attachment. X3 = O=C(CCCCCNCc1nc2c(sc3cc(Br)cnc32)c(=O)[nH]1)*
Criterion: remaining activity at 1 µM strictly less than 60%. Met: criterion met. Not met: criterion not met.

- N=C(N)NCCC[C@@H](NC(=O)CNC(=O)[C@@H](CCCNC(=N)N)NC(=O)[C@@H](CCCNC(=N)N)NC(=O)Cn1cc(CNCc2nc3c(sc4ccc(Br)cc43)c(=O)[nH]2)nn1)C(=O)N[C@H](CCCCN)C(N)=O [Compound 3, BBTP-Amt-(D-Arg)2-Gly-D-Arg-D-Lys-NH2]: criterion met
- N=C(N)NCCC[C@@H](NC(=O)CCCCCNCc1nc2c(sc3cc(Br)cnc32)c(=O)[nH]1)C(=O)N[C@H](CCCNC(=N)N)C(=O)N[C@H](CCCNC(=N)N)C(=O)N[C@H](CCCNC(=N)N)C(=O)N[C@H](CCCNC(=N)N)C(=O)N[C@H](CCCNC(=N)N)C(=O)N[C@H](CCCCN)C(N)=O [ARC-3126, BPTP-Ahx-(D-Arg)6-D-Lys-NH2] (X3-[dR][dR][dR][dR][dR][dR][dK]-NH2): criterion met
- N=C(N)NCCC[C@@H](NC(=O)CNC(=O)[C@@H](CCCNC(=N)N)NC(=O)[C@@H](CCCNC(=N)N)NC(=O)CCCCCCCNCc1nc2c(sc3cc(Br)cnc32)c(=O)[nH]1)C(=O)N[C@H](CCCCN)C(N)=O [Compound 1, BPTP-Aoc-(D-Arg)2-Gly-D-Arg-D-Lys-NH2]: criterion not met
- N=C(N)NCCC[C@@H](NC(=O)CCCCCNC(=O)Cn1cnc2c(I)c(I)c(I)c(I)c21)C(=O)N[C@H](CCCNC(=N)N)C(=O)N[C@H](CCCNC(=N)N)C(=O)N[C@H](CCCNC(=N)N)C(=O)N[C@H](CCCNC(=N)N)C(=O)N[C@H](CCCNC(=N)N)C(=O)N[C@H](CCCCN)C(N)=O [ARC-3125, TIBI-CH2-C(=O)-Ahx-(D-Arg)6-D-Lys-NH2]: criterion met
- N=C(N)NCCC[C@@H](NC(=O)CNC(=O)[C@@H](CCCNC(=N)N)NC(=O)[C@@H](CCCNC(=N)N)NC(=O)CCCCCCCNCc1nc2c(sc3ccc(Br)cc32)c(=O)[nH]1)C(=O)N[C@H](CCCCN)C(N)=O [Compound 2, BBTP-Aoc-(D-Arg)2-Gly-D-Arg-D-Lys-NH2]: criterion not met
